Reference source for all entries: the Kinase Knowledgebase extract (Sharma et al. 2016)

target-or-system: MAPK14 (human) (UniProt Q16539)
Sequence (Q16539 whole entry, looked up): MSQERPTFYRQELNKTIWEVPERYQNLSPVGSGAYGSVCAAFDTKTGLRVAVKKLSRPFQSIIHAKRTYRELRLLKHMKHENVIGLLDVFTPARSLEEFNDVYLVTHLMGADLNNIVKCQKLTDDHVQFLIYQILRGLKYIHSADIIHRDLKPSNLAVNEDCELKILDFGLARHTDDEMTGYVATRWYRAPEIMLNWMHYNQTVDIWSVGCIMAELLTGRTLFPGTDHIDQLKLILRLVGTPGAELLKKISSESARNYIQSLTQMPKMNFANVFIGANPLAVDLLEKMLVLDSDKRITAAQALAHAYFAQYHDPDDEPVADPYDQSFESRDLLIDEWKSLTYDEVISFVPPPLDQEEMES
assay-info: Assessment of MAPK14 Kinase Activity
Below, each entry is listed with its recorded IC50.

Q: Tell me measured IC50 for "O=C(Nc1ccc(OCCN2CCOCC2)c2ccccc12)c1cccc(C=Cc2ccccc2)c1" please.
A: > 10 µM

Q: Specify reported IC50 for the molecule shown: "Cc1nn(-c2ccccc2)c(O)c1C(=O)c1ccccc1"
A: > 100 µM

Q: Look up IC50 of "CS(=O)(=O)N1CCC(Nc2ncc3cc(Oc4ccc(F)cc4F)ncc3n2)CC1" and report it.
A: < 0.05 µM

====

Entries and their inhibition values follow.
target-or-system: MAPK14 (human) (UniProt Q16539)
assay-info: Inhibition of MAPK14 Kinase Activity
study-conditions: concentration not given here
Response body: numeric value in %, unit text excluded.

Below, each entry is followed by its recorded inhibition result.
| smiles-text | unit-descriptor | inhibition |
| --- | --- | --- |
| CCC(=O)Oc1nc2ccccc2c(-c2ccncc2)c1-c1ccc(F)cc1 | % | 21 |
| O=c1cc(-c2ccncc2)c2ccccc2[nH]1 | % | 22 |

Query molecule follows.
Q: # return recorded inhibition for entry "CCOc1nc2ccccc2c(-c2ccncc2)c1-c1ccc(F)cc1"
A: 34
